These data points were gathered from ChEMBL document CHEMBL4651341.

protocol: Mean half-life in Swiss albino male mice at 1 mg/kg per compound (administered iv in a mixture of 5 compounds to 3 mice) assessed by LCMS/MS.
Format: ADME, organism-based
setup_conditions: mouse, in vivo
Provide the recorded half-life for the entries that follow.
Give bare numbers, in h.

Fill in half-life for record CC(C)c1nc2cnc(-c3cccc(C(F)(F)F)c3)cn2c1-c1ccc(OP(=O)(O)O)cc1F
0.529

Using the record for CC(C)c1cc(-c2cn3c(-c4ccc5[nH]ncc5c4F)c(C4CC4)nc3cn2)ccc1F , state its measured half-life.
6.18

Please report the measured half-life for Cc1noc(C)c1-c1cn2c(-c3ccc(O)cc3)cnc2cn1
0.0609

Batch of 7 compounds: report half-life for each.
1. CC(C)c1nc2cnc(-c3cccc(C(F)(F)F)c3)cn2c1-c1ccc2[nH]ncc2c1F
2. Fc1c(-c2c(C(F)(F)F)nc3cnc(-c4cccc(OC(F)(F)F)c4)cn23)ccc2[nH]ncc12
3. CCc1nc2cnc(-c3ccc(F)c(C(F)(F)C(F)(F)F)c3)cn2c1-c1c(F)cc(O)cc1F
4. Oc1ccc(-c2cnc3cnc(-c4cccc(C(F)(F)F)c4)cn23)c(F)c1
5. Oc1ccc(-c2c(C(F)(F)F)nc3cnc(-c4cccc(C(F)(F)F)c4)cn23)c(F)c1
6. CCc1nn2cnc(-c3ccc(F)c(C(F)(F)F)c3)cc2c1-c1c(F)cc(O)cc1F
7. Cc1nc2cnc(-c3ccc(F)c(C(F)(F)F)c3)cn2c1-c1c(F)cc(OP(=O)(O)O)cc1F

6.03
5.8
24.7
0.172
4.46
1.24
2.31
